Consider the following IC50 values measured on SUV420H1 enzyme (Homo sapiens).
Sequence (Q4FZB7 whole entry): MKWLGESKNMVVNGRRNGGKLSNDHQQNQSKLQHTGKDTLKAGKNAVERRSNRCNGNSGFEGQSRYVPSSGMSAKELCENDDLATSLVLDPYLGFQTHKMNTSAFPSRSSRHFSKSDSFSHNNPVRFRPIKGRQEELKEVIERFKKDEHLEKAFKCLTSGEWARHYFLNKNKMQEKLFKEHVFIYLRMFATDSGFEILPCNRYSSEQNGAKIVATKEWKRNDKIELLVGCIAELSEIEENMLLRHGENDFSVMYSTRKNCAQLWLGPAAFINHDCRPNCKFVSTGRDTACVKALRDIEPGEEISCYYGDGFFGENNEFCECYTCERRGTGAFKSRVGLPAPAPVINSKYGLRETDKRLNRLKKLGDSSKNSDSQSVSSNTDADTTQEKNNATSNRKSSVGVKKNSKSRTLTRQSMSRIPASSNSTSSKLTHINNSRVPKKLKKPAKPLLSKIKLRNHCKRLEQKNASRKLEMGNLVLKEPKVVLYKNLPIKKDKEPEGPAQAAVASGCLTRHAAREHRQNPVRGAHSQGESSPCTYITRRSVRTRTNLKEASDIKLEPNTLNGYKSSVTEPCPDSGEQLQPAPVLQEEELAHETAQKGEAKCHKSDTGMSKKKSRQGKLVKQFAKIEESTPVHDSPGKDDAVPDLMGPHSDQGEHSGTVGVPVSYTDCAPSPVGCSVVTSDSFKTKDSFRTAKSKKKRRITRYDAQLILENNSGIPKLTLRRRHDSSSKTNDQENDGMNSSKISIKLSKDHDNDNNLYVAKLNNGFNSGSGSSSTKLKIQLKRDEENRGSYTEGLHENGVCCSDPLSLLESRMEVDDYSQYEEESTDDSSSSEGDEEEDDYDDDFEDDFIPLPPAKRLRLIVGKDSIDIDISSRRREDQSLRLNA
quantity-kind: IC50 (µM)

See these solved cases before continuing.
Cc1nnccc1C(=O)NCc1cc2cc(Cl)cc(Cn3cnc4c(N)ncnc43)c2[nH]1 :: 0.0939
Nc1ncnc2c1ncn2Cc1cc(Cl)cc2cc(CNCc3cccc(Cl)c3)[nH]c12 :: 1.92
Cc1cc(C(=O)NCc2cc3cc(Cl)cc(Cn4cnc5c(N)ncnc54)c3[nH]2)n(C)n1 :: 1.78
CC(C)(C)OC(=O)N1CCC[C@@H]1C(=O)NCc1cc2cc(Cl)cc(Cn3cnc4c(N)ncnc43)c2[nH]1 :: 23.9
Cc1noc(N)c1C(=O)NCc1cc2cc(Cl)cc(Cn3cnc4c(N)ncnc43)c2[nH]1 :: 3.59

I. Cc1ccc(CNCc2cc3cc(Cl)cc(Cn4cnc5c(N)ncnc54)c3[nH]2)cc1
II. Nc1ncnc2c1ncn2Cc1cc(Cl)cc2cc(CNC(=O)Cc3ccccn3)[nH]c12
III. Nc1ncnc2c1ncn2Cc1cc(Cl)cc2cc(CNC(=O)C3CCC3)[nH]c12
Ascending sort, IC50. Order the labels as requested and list them.
I, III, II

A. Nc1ncnc2c1ncn2Cc1cc(Cl)cc2cc(CNCc3c(F)cccc3Cl)[nH]c12
B. Nc1ncnc2c1ncn2Cc1cc(Cl)cc2cc(CNC(=O)CC3CC3)[nH]c12
Response body: label of entry with the larger IC50; valid values A , B . Answer by quoting the chosen item's label.
B
(B: 10.7 µM, A: 3.91 µM)

A. CNC(=O)CCc1c[nH]c2c(Cn3cnc4c(N)ncnc43)cccc12
B. Cc1cc2cc(C(=O)NCc3cc4cc(Cl)cc(Cn5cnc6c(N)ncnc65)c4[nH]3)ccc2o1
Could you check which of A and B has a smaller value for IC50? Answer by quoting the chosen item's label.
B
(B: 3.28 µM, A: 36.9 µM)

Where these numbers come from: patent US9932340B2
